System: IGROV1 ovarian
assayInfo: NCI tumour cell line growth inhibition, 48 h
The reader will find reported TGI values listed item by item below.
Field: numeric (µM). Do not append units.

Reference set, count: 6
CN(C)CCNC(=O)c1ccccc1Nc1c(Cl)cccc1Cl; 36.3
CCCCC1CCCCCCc2[nH]c(/C=C3\N=C(c4ccc[nH]4)C=C3OC)cc21 (stereo not given); 1.29
COc1ccc2c(c1)C(=O)c1c-2n(CCCCl)c(=O)c2cc([N+](=O)[O-])ccc12; 6.57
NC(CCCNc1ccc(O)cc1)C(=O)O (stereo not given); 61.5
COc1ccc(C(=O)OC2C(OC3C(O)COC(O[C@H]4C[C@H]5[C@@H]6CC=C7C[C@@H](O)CC[C@]7(C)[C@H]6CC[C@]5(C)[C@H]4[C@H](C)C(=O)CCC(C)C)C3OC(=O)C(C)C)OCC(O)C2O)cc1 (stereo not given in full); 4.22
CCCCCCN(CCCCCC)C1=CC(=O)C(=O)c2ccccc21; 31.1

Then there is this molecule:
# input molecule: "[O-]c1ccccc1[C-]=Nc1ccccc1O.[O-]c1ccccc1[C-]=Nc1ccccc1O.[O]=[U]=[O]" ; wanted: its TGI
71

---

Tested on: HL-60(TB) leukemia
assayInfo: NCI tumour cell line growth inhibition, 48 h
The reader will find reported TGI values listed item by item below.

Worked set:
O=C1C(=Cc2cccc(Cl)c2)N=C(c2ccccc2)N1n1c(-c2ccccc2)nc2ccccc2c1=O; > 100 µM
CCOC(=O)NC(=O)c1cn(CC(=O)NCC(=O)NCC(=O)N2CCN(CCn3c(C)nc(C(N)=O)c3N)CC2)c(=O)[nH]c1=O; > 100 µM
CCOP(=O)(OCC)c1cc2cc(O)ccc2oc1=O; > 100 µM

Fill in the blank: the reported TGI of O=C1CC(C(O)C(O)C(O)CO)CC(=O)N1 (centres undefined) is ____.
> 100 µM

---

System: ACHN renal
assayInfo: NCI tumour cell line growth inhibition, 48 h
measuredQuantity: TGI

CC/C=C\C[C@H](O)C/C=C1/C(=O)C=C[C@@H]1C/C=C\CCCC(=O)OCCS(=O)(=O)c1ccccc1; 10.3 µM
OC1C2CCC3C2CC(C(O)(c2ccccc2)c2ccccc2)C13 (stereo unspecified); > 100 µM
CC(=O)CC(=O)ON(C)C(C)=O; > 100 µM

Any idea what its TGI is? The compound is "O=C1C(=Cc2cccc(Cl)c2)N=C(c2ccccc2)N1n1c(-c2ccccc2)nc2ccccc2c1=O"
> 100 µM

What TGI value was documented for this compound, "COC(=O)c1ccc(CS(=O)(=O)c2ccccc2)cc1" ?
> 100 µM

Suppose we examine the compound "c1cc2c(cc1NC1=NCCO1)CCCC2" ; what TGI value has been reported?
72.9 µM

Would you mind telling me what TGI value was observed for "COc1c(N2CCCCC2)c2c(=O)c3ccccc3oc2c2cc(C)oc12" ?
53.7 µM

---

System: M14 melanoma
assayInfo: NCI tumour cell line growth inhibition, 48 h; in the data active means GI50 below about 0.43 µM; inactive means the rest
Classes to choose from: active, inactive

C=C(c1ccc(OC)c(/C=C/C(=O)c2cc(OC)c(OC)c(OC)c2)c1)c1cc(OC)c(OC)c(OC)c1; inactive

# outcome recorded in this test, key = "C[C@]12CC/C(=N\O)C[C@@H]1CC[C@@H]1[C@@H]2CC[C@]2(C)/C(=N/O)CC[C@@H]12"
inactive

Which result was noted for this compound in the test: "C[C@@]1([C@H](OC(=O)c2cccc3ccccc23)C(N)=O)CO1"
inactive

What did this assay record as the result for "COc1ccc2c(c1)O/C(=C\c1ccc([N+](=O)[O-])o1)C2=O" ?
inactive

Returns: the outcome recorded for "COc1ccc(Nc2[nH]n(C3=Nc4ccccc4Sc4ccccc43)c(=O)c2C#N)cc1" in this assay.
inactive

# fetch the recorded call for "O=C1C2=C(C(=O)c3c(O)ccc(O)c31)N(c1cccnc1)Cc1ccccc1O2" here
active

Would you mind telling me which call this test gave COc1ccc(C2CC(c3ccc4ccccc4c3)=NN2/C=C2\SC(=S)N(NC(=O)Cc3ccccc3Nc3c(Cl)cccc3Cl)C2=O)cc1 (centres undefined) ?
active

Recorded test outcome, item "O=C1c2cccc3c([N+](=O)[O-])ccc(c23)C(=O)N1CCCCl"
inactive

Per the records of this test, what outcome belongs to "O=c1[nH]ccc2nc(N3CCC(O)CC3)nc(Nc3ccc(N4CCOCC4)cc3)c12" ?
active
